# Protocol notes: Drug level in baboon plasma assessed as unmetabolized fractions after 12 mins
# Assay type: ADME, cell-free
# Test conditions: papio hamadryas, read-out: Activity
Measure name: remaining at 0.2 h (%)
Numbers only, in %.

Entry under review: Cc1ccc(-c2cc(C(F)(F)[18F])nn2-c2ccc(S(N)(=O)=O)cc2)cc1 . Reported remaining at 0.2 h?
47.5

----------
# Protocol notes: Drug level in baboon plasma assessed as unmetabolized fractions after 2 mins
# Format: ADME, cell-free
# Test conditions: papio hamadryas, read-out: Activity
Measure name: remaining at 2 min
Express your answer as a number followed by its unit.

Would you kindly share the measured remaining at 2 min for Cc1ccc(-c2cc(C(F)(F)[18F])nn2-c2ccc(S(N)(=O)=O)cc2)cc1 ?
93.2%
